# measurement protocol: […] clearance in rat at 1 mg/kg, iv and 5 mg/kg, po
# Type: ADME, organism-based
# setup conditions: in vivo
recorded endpoint: clearance
// unit must come after the numeric part

Consider the compound `O=C(c1cccc(F)c1-c1ncccn1)N1[C@@H]2CC[C@H]1[C@H](Nc1cnc(C(F)(F)F)cn1)C2` and give its measured clearance.
17 mL/min/kg

---

# measurement protocol: Volume of distribution at steady state in mouse at 1 mg/kg, iv and 5 mg/kg, po
# Type: ADME, organism-based
# setup conditions: in vivo, read-out: Vdss
recorded endpoint: Vd
// unit must come after the numeric part

Consider the compound `O=C(c1cccc(F)c1-c1ncccn1)N1[C@@H]2CC[C@H]1[C@H](Nc1cnc(C(F)(F)F)cn1)C2` and give its measured Vd.
1.1 L/kg

---

# measurement protocol: Clearance in mouse at 1 mg/kg, iv and 5 mg/kg, po
# Type: ADME, organism-based
# setup conditions: in vivo
recorded endpoint: clearance

Consider the molecule `O=C(c1cccc(F)c1-c1ncccn1)N1[C@@H]2CC[C@H]1[C@H](Nc1cnc(C(F)(F)F)cn1)C2` and give its measured clearance.
21 mL/min/kg

---

# measurement protocol: Protein binding in rat brain assessed as free fraction
# Assay type: ADME, tissue-based
recorded endpoint: fraction unbound

Examples from the recorded data:
| smiles str | fraction unbound |
| --- | --- |
| O=C(c1cccc(F)c1-c1ncccn1)N1[C@@H]2CC[C@H]1[C@H](Nc1ncc(C(F)(F)F)cc1F)C2 | 0.027 |
| O=C(c1cccc(F)c1-c1ncccn1)N1[C@@H]2CC[C@H]1[C@H](Nc1cnc(C(F)(F)F)cn1)C2 | 0.09 |

Consider the compound `O=C(c1ccccc1-c1ncccn1)N1[C@@H]2CC[C@H]1[C@H](Nc1cnc(C(F)(F)F)cn1)C2` and give its measured fraction unbound.
0.067

---

# measurement protocol: Cmax in mouse assessed as NOAEL at 200 mg/kg/day, po measured after immediately administered
# Assay type: ADME, organism-based
# Design: route oral, time 13 day, dose 200 mg/kg/day
# setup conditions: in vivo
recorded endpoint: Cmax

Consider the compound `O=C(c1cccc(F)c1-c1ncccn1)N1[C@@H]2CC[C@H]1[C@H](Nc1cnc(C(F)(F)F)cn1)C2` and give its measured Cmax.
32900 ng/mL

---

# measurement protocol: Protein binding in dog plasma assessed as free fraction
# Type: ADME, cell-free, Canis lupus familiaris
recorded endpoint: fraction unbound
Please give only the number in your answer, with no unit.

Consider the compound `O=C(c1cccc(F)c1-c1ncccn1)N1[C@@H]2CC[C@H]1[C@H](Nc1cnc(C(F)(F)F)cn1)C2` and give its measured fraction unbound.
0.21

---

# measurement protocol: Ex vivo receptor occupancy at OX1R in Sprague-Dawley rat brain tenia tecta using [3H]SB-674042 labelling at 10 mg/kg, po measured after 6 hrs by autoradiography
# Format: functional
Think of 30% as a floor: if Activity stands on it or above, it is MET; beneath it, NOT MET.

Examples from the recorded data:
| smiles str | assigned class |
| --- | --- |
| O=C(c1c(F)cccc1-c1ncccn1)N1[C@@H]2CC[C@H]1[C@H](Nc1cnc(C(F)(F)F)cn1)C2 | NOT MET |
| O=C(c1cccc(F)c1-c1ncccn1)N1[C@@H]2CC[C@H]1[C@H](Nc1cnc(C(F)(F)F)cn1)C2 | NOT MET |
| O=C(c1ccccc1-c1ncccn1)N1[C@@H]2CC[C@H]1[C@H](Nc1cnc(C(F)(F)F)cn1)C2 | MET |
| O=C(c1cccc(F)c1-c1ncccn1)N1[C@@H]2CC[C@H]1[C@H](Nc1ncc(C(F)(F)F)cc1F)C2 | MET |

Could you tell me if the measured Activity of `O=C(c1cccc(F)c1-c1ncccn1)N1[C@@H]2CC[C@H]1[C@H](Nc1ccc(C(F)(F)F)cn1)C2` reaches 30% or more?
NOT MET

---

# measurement protocol: Stability in rat liver microsomes assessed as extraction ratio
# Type: ADME, Microsome
# setup conditions: read-out: ERH
recorded endpoint: hepatic extraction ratio
Please give only the number in your answer, with no unit.

Examples from the recorded data:
| compound | hepatic extraction ratio |
| --- | --- |
| O=C(c1cccc(F)c1-c1ncccn1)N1[C@@H]2CC[C@H]1[C@H](Nc1ncc(C(F)(F)F)cc1F)C2 | 0.8 |
| O=C(c1cccc(F)c1-c1ncccn1)N1[C@@H]2CC[C@H]1[C@H](Nc1ncc(C(F)(F)F)cc1Cl)C2 | 0.83 |
| O=C(c1ccccc1-c1ncccn1)N1[C@@H]2CC[C@H]1[C@H](Nc1cnc(C(F)(F)F)cn1)C2 | 0.38 |
| O=C(c1ccccc1-n1nccn1)N1C2CCC1C(Nc1ccc(C(F)(F)F)cn1)C2 (racemic) | 0.87 |
| O=C(c1ccccc1-n1nccn1)N1C2CCC1C(Nc1cnc(C(F)(F)F)cn1)C2 (racemic) | 0.55 |

Now take the following compound into account.
Consider the compound `O=C(c1cccc(F)c1-c1ncccn1)N1[C@@H]2CC[C@H]1[C@H](Nc1ccc(C(F)(F)F)cn1)C2` and give its measured hepatic extraction ratio.
0.82

---

# measurement protocol: Clearance in rat at 1 mg/kg, iv and 5 mg/kg, po
# Type: ADME, organism-based
# setup conditions: in vivo
recorded endpoint: clearance

Consider the compound `O=C(c1cccc(F)c1-c1ncccn1)N1[C@@H]2CC[C@H]1[C@H](Nc1cnc(C(F)(F)F)cn1)C2` and give its measured clearance.
17 mL/min/kg

---

# measurement protocol: AUC (0 to 24 hrs) in mouse assessed as NOAEL at 200 mg/kg/day, po measured after immediately administered
# Assay type: ADME, organism-based
# Set-up: route oral, dose 200 mg/kg/day, time 13 day
# setup conditions: in vivo
recorded endpoint: AUC at 312 h (µg·h/mL)
State the answer as a number, implicitly in µg·h/mL.

Consider the compound `O=C(c1cccc(F)c1-c1ncccn1)N1[C@@H]2CC[C@H]1[C@H](Nc1cnc(C(F)(F)F)cn1)C2` and give its measured AUC at 312 h.
225

---

# measurement protocol: AUC (0 to 24 hrs) in mouse assessed as NOAEL at 200 mg/kg/day, po administered as repeated dose for 13 days
# Type: ADME, organism-based
# Set-up: route oral, dose 200 mg/kg/day, time 13 day
# setup conditions: in vivo
recorded endpoint: AUC at 312 h (ng·h/mL)
State the answer as a number, implicitly in ng·h/mL.

Consider the molecule `O=C(c1cccc(F)c1-c1ncccn1)N1[C@@H]2CC[C@H]1[C@H](Nc1cnc(C(F)(F)F)cn1)C2` and give its measured AUC at 312 h.
84100

---

# measurement protocol: Ex vivo receptor occupancy at OX1R in Sprague-Dawley rat brain tenia tecta using [3H]SB-674042 labelling at 30 mg/kg, po measured after 0.5 hrs by autoradiography
# Assay type: functional
Listing of recorded Activity by entry.
State the answer as a number, implicitly in %.

Examples from the recorded data:
| molecule | units of measure | Activity |
| --- | --- | --- |
| Cc1ccc(-n2nccn2)c(C(=O)N2[C@@H]3CC[C@H]2[C@H](COc2ccc(F)cn2)C3)n1 | % | 50 |
| O=C(c1ccc(F)cc1-c1ncccn1)N1[C@@H]2CC[C@H]1[C@H](Nc1cnc(C(F)(F)F)cn1)C2 | % | 75 |
| O=C(c1cccc(F)c1-c1ncccn1)N1[C@@H]2CC[C@H]1[C@H](Nc1cnc(C(F)(F)F)cn1)C2 | % | 100 |

Consider the molecule `Cc1ccc(-n2nccn2)c(C(=O)N2[C@@H]3CC[C@H]2[C@H](COc2ccccn2)C3)n1` and give its measured Activity.
50

Would you mind doing Cc1ccc(-n2nccn2)c(C(=O)N2C3CCC2C(COc2ccc(F)cn2)C3)c1 (racemic) as well?
49

---

# measurement protocol: Cmax in mouse at 1 mg/kg, iv and 5 mg/kg, po
# Type: ADME, organism-based
# Set-up: dose 5 mg/kg
# setup conditions: in vivo
recorded endpoint: Cmax (ng/mL)
State the answer as a number, implicitly in ng/mL.

Consider the molecule `O=C(c1cccc(F)c1-c1ncccn1)N1[C@@H]2CC[C@H]1[C@H](Nc1cnc(C(F)(F)F)cn1)C2` and give its measured Cmax.
1500

---

Listing of recorded concentration at 0.5 h by entry.
# measurement protocol: Drug concentration in Sprague-Dawley rat brain at 30 mg/kg, po after 0.5 hrs by LC-MS/MS analysis
# Type: ADME, organism-based
# setup conditions: read-out: Ct
State the answer as a number, implicitly in ng/mL.

Examples from the recorded data:
| compound | concentration at 0.5 h [ng/mL] |
| --- | --- |
| Cc1ccc(-n2nccn2)c(C(=O)N2C3CCC2C(COc2ccc(F)cn2)C3)c1 (racemic) | 16 |
| Cc1ccc(-n2nccn2)c(C(=O)N2[C@@H]3CC[C@H]2[C@H](COc2ccc(F)cn2)C3)n1 | 313 |
| O=C(c1cccc(F)c1-c1ncccn1)N1[C@@H]2CC[C@H]1[C@H](Nc1cnc(C(F)(F)F)cn1)C2 | 687 |
| Cc1ccc(-n2nccn2)c(C(=O)N2[C@@H]3CC[C@H]2[C@H](COc2ccccn2)C3)n1 | 8 |

Now take the following compound into account.
Consider the compound `O=C(c1ccc(F)cc1-c1ncccn1)N1[C@@H]2CC[C@H]1[C@H](Nc1cnc(C(F)(F)F)cn1)C2` and give its measured concentration at 0.5 h.
37
